Reported log10 Ki, Human immunodeficiency virus type 1 protease (Human immunodeficiency virus 1).
Starred links: 1 amine or outer side, 2 acyl side, 3 side chain; linkers in the order of their positions; H or OH if unused. Non-standard residues stand in square brackets, D forms with d. Residues, ends and D or L forms follow the SMILES beside them. X2 = CC(C)C[C@H](N[*:1])[C@@H](O)CN1CCC[C@@H]1C(=O)[*:2]
endpointName: log10 Ki (log10 of the value in µM)

1. CC[C@H](C)[C@H](NC(=O)[C@H]1CCCN1C[C@H](O)[C@H](CC(C)C)NC(=O)[C@H](CC(N)=O)NC(=O)[C@H](CC(C)C)NC(=O)[C@H](CO)NC(C)=O)C(=O)N[C@H](C(=O)OC)C(C)C (Ac-SLN[X2]IV-OMe)    -1.96
2. CC(C)[C@H](NC(=O)[C@@H](NC(=O)C1CCCN1C[C@H](Cc1ccccc1)NC(=O)[C@H](C)NC(=O)[C@H](C)NC(=O)[C@@H](N)CO)C(C)C)C(N)=O (single isomer, unassigned)    1.26
3. CC[C@H](C)[C@H](NC(=O)[C@H]1CCCN1C[C@H](O)[C@H](CC(C)C)NC(=O)[C@H](CC(N)=O)NC(=O)[C@H](CC(C)C)NC(=O)[C@H](CO)NC(C)=O)C(=O)OC (Ac-SLN[X2]I-OMe)    -0.01
4. CC(C)(C)OC(=O)N[C@H](Cc1ccccc1)[C@H](O)CC(=O)N[C@@H](CCC(=O)O)C(=O)N[C@@H](Cc1ccccc1)C(=O)O    0.48
5. CC(C)[C@H](NC(=O)OCc1ccccc1)C(=O)N[C@@H](Cc1ccccc1)[C@@H](O)[C@@H](CC(=O)[C@H](NC(=O)OCc1ccccc1)C(C)C)Cc1ccccc1    -2.43
